Some molecules, each annotated with its measured cell survival rate.
# Test system: Rat cardiomyocytes (H9c2)
# method_description: GD-induced myocardial cell damage model, CCK-8, SGLT2 inhibitors with L-menthol (Example 9)
# Format: cell-based
# measurement_setup: single drugs: SGLT2 inhibitor 50 μM or menthol 200 μM; GD 36-48 h; untreated group 54.7%
Field: numeric (%). Do not append units.

CCOc1ccc(Cc2cc([C@@H]3O[C@H](CO)[C@@H](O)[C@H](O)[C@H]3O)ccc2Cl)cc1 = 58.9
OC[C@H]1O[C@@H](c2ccc(Cl)c(Cc3ccc(O[C@H]4CCOC4)cc3)c2)[C@H](O)[C@@H](O)[C@@H]1O = 64.5
CC(C)[C@@H]1CC[C@@H](C)C[C@H]1O = 56.7

Here is another molecule to look at.
Input: Item under review: `CCOc1ccc(Cc2cc([C@]34OC[C@](CO)(O3)[C@@H](O)[C@H](O)[C@H]4O)ccc2Cl)cc1` . Reported cell survival rate?
Output: 58.6
